Reference source: patent US20260216196A1

Listing: IC50 of selected compounds
- Target Entity: MLLT3 (Homo sapiens, UniProt P42568)
- Sequence (P42568 whole entry): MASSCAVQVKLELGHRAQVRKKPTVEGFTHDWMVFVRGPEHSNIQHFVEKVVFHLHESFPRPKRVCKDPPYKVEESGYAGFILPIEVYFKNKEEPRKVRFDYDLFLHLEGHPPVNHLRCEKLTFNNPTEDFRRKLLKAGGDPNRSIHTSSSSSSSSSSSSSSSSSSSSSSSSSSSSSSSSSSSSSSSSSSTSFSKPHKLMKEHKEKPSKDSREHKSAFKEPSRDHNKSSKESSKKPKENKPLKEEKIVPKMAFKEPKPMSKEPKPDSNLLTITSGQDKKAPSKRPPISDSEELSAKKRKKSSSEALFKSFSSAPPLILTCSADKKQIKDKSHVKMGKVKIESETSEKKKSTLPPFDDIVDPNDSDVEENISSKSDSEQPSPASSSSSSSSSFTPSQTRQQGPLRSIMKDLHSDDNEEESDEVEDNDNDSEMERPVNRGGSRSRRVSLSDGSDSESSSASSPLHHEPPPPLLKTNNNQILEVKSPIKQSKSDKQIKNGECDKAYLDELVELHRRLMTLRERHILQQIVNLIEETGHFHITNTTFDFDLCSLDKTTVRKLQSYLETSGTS
- Method Description: HTRF IC50 determination assay, MLLT3 / H3K9cro peptide displacement
- Test Context: MLLT3 assay IC50 (nM), 6His tagged MLLT3, biotinylated H3K9cro peptide, compound 20 μM to 20 nM, 11 data points in duplicate
Counter-ions that a name gives are not always drawn.

Compound: CCC1CC(c2cn3cc(NC(=O)c4ccc5c(C)nn(C)c5c4)ncc3n2)N(C)C1 (single isomer, unassigned) [Example 77]
IC50: 1500 to 20000 nM

Compound: COc1ccc2c(C(=O)Nc3ccc4nc(C5CCCN5C)cn4c3)c[nH]c2c1 (racemic)
IC50: > 20000 nM

Compound: Cc1nn(C)c2cc(C(=O)Nc3cn4cc(C5CCCN5C)nc4cc3F)ccc12 (racemic)
IC50: 1500 to 20000 nM

Compound: Cc1nn(C)c2nc(C(=O)Nc3ccc4nc(C5CCCN5C)cn4c3)ccc12 (racemic)
IC50: 1500 to 20000 nM

Compound: CN1CCCC1c1cn2cc(NC(=O)c3cccc(-n4cccn4)c3)ccc2n1 (racemic)
IC50: 1500 to 20000 nM

Compound: CN1CCCCC1c1cn2cc(NC(=O)c3ccc4c(cnn4C)c3)ccc2n1 (single isomer, unassigned) [Example 27]
IC50: > 20000 nM

Compound: CN1CCCC1c1cn2cc(NC(=O)c3ccc4scnc4c3)ccc2n1 (stereo not shown)
IC50: 150 to 1500 nM

Compound: Cc1nn(C)c2cc(C(=O)Nc3cn4cc([C@@H]5CCCN5C)nc4cn3)ccc12 (single isomer, unassigned)
IC50: 1500 to 20000 nM

Compound: Cc1nn(C)c2cc(C(=O)Nc3cn4cc(C5CC(C(C)(C)C)CN5C)nc4cn3)ccc12 (racemic)
IC50: 150 to 1500 nM

Compound: Cc1nn(C)c2cc(C(=O)Nc3ccc4nc(C5CCCN5C)cn4c3)ccc12 (racemic)
IC50: 150 to 1500 nM

Compound: Cc1c(C(=O)Nc2ccc3nc(C4CCCN4C)cn3c2)sc2nc[nH]c(=O)c12 (racemic)
IC50: 1500 to 20000 nM

Compound: CN1CCC[C@@H]1c1cn2cc(NC(=O)c3cc4cnn(C)c4cc3F)ncc2n1
IC50: 150 to 1500 nM

Compound: CN1CCCC1c1cn2cc(NC(=O)c3ccc4c(c3)c(C3CCNC3)nn4C)ccc2n1 (racemic) [Example 56, formate]
IC50: 150 to 1500 nM

Compound: Cc1nn(C)c2ncc(C(=O)Nc3ccc4nc(C5CCCN5C)cn4c3)c(Cl)c12 (racemic)
IC50: 1500 to 20000 nM

Compound: CN1CCCC1c1cn2cc(NC(=O)c3ccc4ncccc4n3)ccc2n1 (racemic)
IC50: > 20000 nM

Compound: CN1CCCC1c1cn2cc(NC(=O)c3ccc4c(c3)nnn4C3CCCCC3)ccc2n1 (racemic)
IC50: 150 to 1500 nM
